Experiment: Half-life of the N-glycosylic bond in HCl, followed UV-spectrophotometrically and by HPLC
Type: physicochemical
Details: 0.5 N HCl, 25°; Stable = within 4 h; read-out: Half-life τ
Parameter: half-life (min)
One number for each entry, in min.

Briefly, half-life measured for Nc1nc(N)c2ncn([C@H]3C[C@H](O)[C@@H](CO)O3)c2n1 [compound 1, 2-amino-2′-deoxyadenosine, reference compound] : 6

====

Assay: Half-life of the N-glycosylic bond in HCl, followed UV-spectrophotometrically and by HPLC
Assay type: physicochemical
Conditions: 2 N HCl, 25°; read-out: Half-life τ
Parameter: half-life (h)
One number for each entry, in h.

Briefly, half-life measured for Nc1nc(N)c2c(Br)nn([C@H]3C[C@H](O)[C@@H](CO)O3)c2n1 : 1.45
